Test: NF-kB promoter reporter activators, neuronal cells, dose response, cell-based, SH-SY5Y, luciferase (AID 1241)
Conditions: fold induction
readoutType: EC50

Solved entries (count: 4):
compound="Cc1ccsc1/C=C1\\CCC(C2CCCC2)C1=O (centres undefined)" reported="5840 nM"
compound=CSc1ccc(C(=O)/C=C/c2ccc(N)cc2)cc1 reported="3840 nM"
compound=Oc1ccc(F)cc1-c1cc(-c2ccc3c(c2)OCCO3)n[nH]1 reported="1010 nM"
compound=CCCC(=O)Nc1ccc(C(=O)N/N=C/c2ccc[nH]2)cc1 reported="2990 nM"

Next:
Exam item: # query: EC50 of entry COc1cc(/C=N/Nc2nc3ccccc3s2)ccc1OC(=O)c1ccccc1F
Marked response: 1420 nM

----------
Assay: NF-kB promoter reporter activators, neuronal cells, dose response, cell-based, SH-SY5Y, luciferase (AID 1241)
Settings: fold induction
Entries and their EC50

Solved entries (count: 2):
molecule="COc1ccc(N2C(=S)NC3N2C(=S)NC3(C)c2ccccc2)cc1 (stereo not drawn)" readouttype=EC50 reported="8.37 µM"
molecule="Cc1ccccc1Nc1nnc(SCC2CCCCO2)s1 (stereo not drawn)" readouttype=EC50 reported="5.76 µM"

Exam item: # query: EC50 of entry CC(C)c1ccc(NC(=O)NC2CCCCC2)cc1
Marked response: 8.15 µM

----------
Entries and their pEC50
Experiment: NF-kB promoter reporter activators, neuronal cells, dose response, cell-based, SH-SY5Y, luciferase (AID 1241)
Conditions: fold induction
Reminder that pEC50 means the negative base-10 logarithm of the concentration expressed in mol/L.

smiles=Cc1occc1C(=O)Nc1ccc2ccccc2c1 reported=5.43
smiles=CCSc1ccc(-c2ccc(C)cc2)nn1 reported=6.16

Exam item: # query: pEC50 of entry Fc1ccccc1OCCSc1nnnn1-c1ccccc1
Marked response: 5.91

Exam item: # query: pEC50 of entry Cc1noc(/C=C/Nc2ccc(F)cc2F)c1[N+](=O)[O-]
Marked response: 5.63

Exam item: # query: pEC50 of entry Cc1ccc(Cc2cnc(NC(=O)c3cccs3)s2)cc1
Marked response: 5.30

Exam item: # query: pEC50 of entry CN1/C(=C\C(=O)c2cccs2)Sc2ccccc21
Marked response: 5.89

----------
Assay: NF-kB promoter reporter activators, neuronal cells, dose response, cell-based, SH-SY5Y, luciferase (AID 1241)
Conditions: fold induction
readoutType: EC50

smiles=CCOc1ccc2nc(-c3ccccc3)[nH]c2c1 reported="1.14 µM"

Exam item: # query: EC50 of entry COc1ccc(CN=C2Nc3ccccc3CS2)cc1
Marked response: 13.3 µM

Exam item: # query: EC50 of entry COc1cccc(/C=C/C(=O)Nc2ccc3c(c2)OCCO3)c1OC
Marked response: 1.05 µM

----------
Test: NF-kB promoter reporter activators, neuronal cells, dose response, cell-based, SH-SY5Y, luciferase (AID 1241)
Conditions: fold induction
Entries and their EC50

Solved entries (count: 2):
smiles=COc1cccc(CNc2ccc(Br)cn2)c1O reported="3.9 µM"
smiles=Nc1ccc(O)cc1C(=O)OCC(=O)c1ccc(C2CCCCC2)cc1 reported="3.91 µM"

Exam item: # query: EC50 of entry CCC(=O)Nc1nc(-c2ccc3c(c2)OCCO3)cs1
Marked response: 4.54 µM

Exam item: # query: EC50 of entry COc1ccc2nc(Nc3ccccc3)sc2c1
Marked response: 11.1 µM

Exam item: # query: EC50 of entry Cc1ccc(-c2nc3ccc([N+](=O)[O-])cc3[nH]2)cc1
Marked response: 0.577 µM

Exam item: # query: EC50 of entry Cc1ccc(NCc2nc3ccccc3n2C)cc1
Marked response: 3.36 µM

Exam item: # query: EC50 of entry CCCOc1ccc(C(=O)NCCc2ccccc2)cc1
Marked response: 0.648 µM

----------
Assay: NF-kB promoter reporter activators, neuronal cells, dose response, cell-based, SH-SY5Y, luciferase (AID 1241)
Settings: fold induction
Entries and their EC50

smiles=COc1ccc(-c2nnc(SCc3ccccc3F)o2)cc1 reported="3.89 µM"
smiles=C(=N\Nc1nc2ccccc2s1)/c1cccs1 reported="0.887 µM"
smiles=Cc1cccc(NC(=O)c2cnc3sccn3c2=O)c1 reported="0.998 µM"

Exam item: # query: EC50 of entry Cc1ccc2nc(-c3ccc(NC(=O)COC(=O)c4ccc([N+](=O)[O-])o4)cc3)sc2c1
Marked response: 0.437 µM

Exam item: # query: EC50 of entry Cc1ccc(/C=C2\OC(=O)c3ccccc32)cc1
Marked response: 6.03 µM

Exam item: # query: EC50 of entry Brc1ccccc1/C=N/Nc1ccc2ccccc2n1
Marked response: 5.5 µM

Exam item: # query: EC50 of entry CC(C)Oc1cc(O)c2c(=O)c(-c3ccc(O)cc3)coc2c1
Marked response: 4.52 µM

Exam item: # query: EC50 of entry Cc1ccc(-c2cc(-c3ccccc3Cl)[nH]n2)c(O)c1
Marked response: 7.15 µM

Exam item: # query: EC50 of entry C=CCNc1nc(-c2ccc(Cl)cc2)cs1
Marked response: 11.1 µM

Exam item: # query: EC50 of entry COc1ccc2c(c1)CC/C2=N\OC(=O)c1cccc(C)c1
Marked response: 2.06 µM

----------
Assay: NF-kB promoter reporter activators, neuronal cells, dose response, cell-based, SH-SY5Y, luciferase (AID 1241)
Settings: fold induction
readoutType: EC50

Solved entries (count: 2):
smiles=Clc1c(CSc2nc3ccccc3o2)nc2ccccn12 readouttype=EC50 reported="1.96 µM"
smiles=Cc1cc2nc(-c3ccc(SCC(=O)Nc4ccc(S(=O)(=O)NC5CC5)cc4)nc3)[nH]c2cc1C readouttype=EC50 reported="0.907 µM"

Next:
Exam item: # query: EC50 of entry O=C(NC(=S)Nc1ccc2c(c1)OCO2)c1ccccc1
Marked response: 5.7 µM

----------
Test: NF-kB promoter reporter activators, neuronal cells, dose response, cell-based, SH-SY5Y, luciferase (AID 1241)
Conditions: fold induction
readoutType: EC50

Solved entries (count: 5):
compound=COc1cc(OC)cc(-c2nc3cc(C)ccc3o2)c1 readouttype=EC50 reported="29300 nM"
compound=Cc1ccccc1/C=C1\CCCc2ccccc2C1=O readouttype=EC50 reported="24900 nM"
compound=O=C(/C=C/c1ccc(Cl)cc1Cl)Nc1cccc(S(=O)(=O)NC2=NCCC2)c1 readouttype=EC50 reported="1300 nM"
compound=Cn1c(C(=O)Nc2ccc3c(c2)OCCO3)cc2sccc21 readouttype=EC50 reported="1170 nM"
compound=C=CCSc1nnc(-c2ccc(Cl)cc2Cl)o1 readouttype=EC50 reported="4370 nM"

Exam item: # query: EC50 of entry Nc1ccc2nc(-c3ccc(Cl)cc3)[nH]c2c1
Marked response: 9960 nM

Exam item: # query: EC50 of entry Clc1ccccc1OCc1nc(-c2ccccn2)no1
Marked response: 2100 nM

Exam item: # query: EC50 of entry CCOC(=O)c1sc2nc3c(cc2c1N)COC(C)(CC)C3 (centres undefined)
Marked response: 1450 nM

Exam item: # query: EC50 of entry CCOc1ccc2nc(NC(=S)N(C)C)sc2c1
Marked response: 17300 nM

Exam item: # query: EC50 of entry CCOC(=O)c1cnc2c(-c3ccccc3)cnn2c1C
Marked response: 7520 nM

Exam item: # query: EC50 of entry Cc1ccc(/C=N/Nc2nc3ccccc3s2)o1
Marked response: 790 nM

Exam item: # query: EC50 of entry O=C(Nc1nc2c(s1)CCCC2)c1ccc(Br)s1
Marked response: 1070 nM

Exam item: # query: EC50 of entry O=C1c2ccccc2NC(c2cnc3ccccc3n2)N1O (centres undefined)
Marked response: 903 nM

Exam item: # query: EC50 of entry Cc1ccc(/C=N/Nc2cccc(C(=O)O)c2)s1
Marked response: 2120 nM

Exam item: # query: EC50 of entry CC(=O)c1ccc(NC(=O)/C(Cl)=C/c2ccccc2)cc1
Marked response: 4310 nM

Exam item: # query: EC50 of entry Nc1nn(-c2ccccc2)c(N)c1N=Nc1ccc2c(c1)OCO2
Marked response: 1600 nM

Exam item: # query: EC50 of entry Cc1ccnc(NC(=O)Nc2cccc(F)c2)c1
Marked response: 608 nM

Exam item: # query: EC50 of entry O=C(/C=C/Nc1ccccc1F)c1cccs1
Marked response: 413 nM

Exam item: # query: EC50 of entry COc1ccc2nc(SCc3ccccc3)nc(C)c2c1
Marked response: 6570 nM

----------
Assay: NF-kB promoter reporter activators, neuronal cells, dose response, cell-based, SH-SY5Y, luciferase (AID 1241)
Conditions: fold induction
readoutType: pEC50
Reminder that pEC50 means the negative base-10 logarithm of the concentration expressed in mol/L.

Solved entries (count: 3):
compound=O=C(/C=C\Nc1ccccc1Br)c1ccc2c(c1)OCO2 reported=7.02
compound=CCOC(=O)c1sc(=NC(=O)c2cccs2)n(C)c1C reported=6.11
compound=CC(=O)Nc1cccc(-c2csc(Nc3ccc(C)cn3)n2)c1 reported=6.15

Exam item: # query: pEC50 of entry Cc1ccc(C(=O)Nc2nnc(SCC(=O)N3CCCc4ccccc43)s2)cc1
Marked response: 5.78

Exam item: # query: pEC50 of entry Cc1c(C(=O)N2CCc3ccccc32)oc2ccccc12
Marked response: 5.47

Exam item: # query: pEC50 of entry O=C(Nc1ccc2c(c1)OCCO2)Nc1ccc2c(c1)OCO2
Marked response: 6.94

Exam item: # query: pEC50 of entry CCCCOc1ccc(-c2csc(N)n2)cc1[N+](=O)[O-]
Marked response: 4.85

Exam item: # query: pEC50 of entry Cc1nnc(SCc2cnc(-c3ccc(C(C)C)cc3)s2)n1C
Marked response: 5.34

Exam item: # query: pEC50 of entry Cc1nc(-c2ccc(NC(=O)c3ccccc3)cc2)cs1
Marked response: 6.12

Exam item: # query: pEC50 of entry c1ccc(-c2ccc(-c3nc(-c4ccncc4)no3)cc2)cc1
Marked response: 6.20

Exam item: # query: pEC50 of entry COc1cccc(C(=O)/C=C/Nc2cccc(O)c2)c1
Marked response: 5.89

Exam item: # query: pEC50 of entry O=C(NCCC1=CCCCC1)c1ccc(Cl)cc1
Marked response: 6.70

Exam item: # query: pEC50 of entry O=C(Nc1ccc(Cl)cc1)c1ccc2c(c1)OCO2
Marked response: 5.56

Exam item: # query: pEC50 of entry Cc1ccc(-n2cc3ccc([N+](=O)[O-])cc3n2)cc1
Marked response: 5.89

Exam item: # query: pEC50 of entry CCc1ccc(C(=O)COC(=O)c2n[nH]c3ccccc23)cc1
Marked response: 5.60

Exam item: # query: pEC50 of entry CC(C)N=C1NN=C(c2ccc(Cl)c(Cl)c2)CS1
Marked response: 5.85
